// data source = patent US5861414A

# IC50 values compiled below
system: human washed and resuspended platelets (HRP); assay: Inhibition of U-46619-induced platelet aggregation in washed human platelets (turbidometric, Born-type aggregometer); format: cell-based; details: Homo sapiens, Platelet, washed human platelets, 37° C, 5 minutes pre-incubation; agonist 1 μM U-46619; fibrinogen 0.5 mg/ml; read-out: IC50, concentration of the compound required to inhibit platelet aggregation by 50%
Where a name gives a salt, the structure may show the parent alone.
RECORDED_METRIC: IC50 (nM)

>>> measured_result("O=C(O)CN1CCC(c2nn(Cc3ccccc3)c3cc(/C=C/C4CCNCC4)ccc23)CC1 [7 (ii), trifluoroacetate]")
107
>>> measured_result("O=C(O)CN1CCC(c2n[nH]c3cc(/C=C/C4CCNCC4)ccc23)CC1 [2 (ii), trifluoroacetate]")
92
>>> measured_result("O=C(O)CN1CCC(c2nn(Cc3ccc(Cl)cc3)c3cc(CCC4CCNCC4)ccc23)CC1")
80
>>> measured_result("O=C(O)CN1CCC(c2nn(Cc3ccc(Cl)c(Cl)c3)c3cc(/C=C/C4CCNCC4)ccc23)CC1 [3 (ii), trifluoroacetate]")
74
>>> measured_result("O=C(O)CN1CCC(c2nn(Cc3ccc(Cl)cc3)c3cc(/C=C/C4CCNCC4)ccc23)CC1 [4 (ii), trifluoroacetate]")
72
>>> measured_result("O=C(O)CN1CCC(c2nn(Cc3ccc(F)cc3)c3cc(/C=C/C4CCNCC4)ccc23)CC1 [1 (xiii), trifluoroacetate]")
126
